ASSAY SUMMARY: Toxicity liver stage against HepG2, at 10uM
Assay type: cell-based
Set-up: test concentration 10 uM, cell line HepG2-A16-CD81EGFP
CONDITION LABEL: human, HepG2-A16-CD81EGFP cells; read-out: INHIBITION
MEASURED QUANTITY: cytotoxicity at 10 µM (%)
Give a bare numeral; the unit % is implied.

Recorded results for 3 compounds are shown here.
COMPOUND | cytotoxicity at 10 µM [%]
CC(C(=O)N1CCc2ccccc2C1)n1cc(Br)cn1 (stereo not given) | -8.77
O=C(C1=CCCC1)N1C[C@@H]2COC[C@]2(COc2ncccc2F)C1 | -99.3
COc1cccc2c1OCC(C(=O)N1CCN(S(=O)(=O)N(C)C)CC1)C2 (stereo not given) | 3.47

# return recorded cytotoxicity at 10 µM for input COc1ccc(S(=O)(=O)NC(=O)C(C)OC)c(OC)c1 (stereo not given)
-6.67

# return recorded cytotoxicity at 10 µM for input `Cn1cc(CN2CCO[C@@H]3CN(Cc4ccoc4)C[C@@H]3C2)cn1`
2.14

---

ASSAY SUMMARY: Toxicity liver stage against HepG2, at 10uM
Type: cell-based
Set-up: test concentration 10 uM, cell line HepG2-A16-CD81EGFP
CONDITION LABEL: human, HepG2-A16-CD81EGFP cells; read-out: INHIBITION
Each entry below carries its recorded cytotoxicity at 10 µM.
Give a bare numeral; the unit % is implied.

Recorded results for 2 molecules are shown here.
MOLECULE | RECORDED RESULT
O=C(c1ccoc1)N1CC[C@H]2[C@H]1CCN2S(=O)(=O)C1CC1 | -139
Cc1ccc(S(=O)(=O)N2CC(C)Oc3ncccc32)c(F)c1 (centres undefined) | 3.43

# return recorded cytotoxicity at 10 µM for input `CC(C)c1cc(C(=O)NCCc2nc(-c3ccncc3)n[nH]2)[nH]n1`
-0.01

# return recorded cytotoxicity at 10 µM for input NS(=O)(=O)Cc1cccc(C(=O)N2CCCC(n3cccn3)C2)c1 (centres undefined)
1.25

# return recorded cytotoxicity at 10 µM for input Cn1cccc1C(=O)N1CCCC(Cn2cc(CO)nn2)C1 (centres undefined)
1.85

# return recorded cytotoxicity at 10 µM for input `COCCN1C[C@@H]2CC[C@H]1CN(CC(=O)Nc1ccn(C)n1)C2`
-8.39

# return recorded cytotoxicity at 10 µM for input Cc1cc(CNCC2(O)CCCN(CCCc3ccccc3)C2=O)n[nH]1 (centres undefined)
-2.4

# return recorded cytotoxicity at 10 µM for input `CCOCCCNc1ncc(-c2onc(C)c2C)c(-c2ccco2)n1`
10.2

# return recorded cytotoxicity at 10 µM for input COc1ccccc1CNC(Cc1cccs1)c1nc(C)c(C)s1 (centres undefined)
3.89

---

ASSAY SUMMARY: Toxicity liver stage against HepG2, at 10uM
Format: cell-based
Design: test concentration 10 uM, cell line HepG2-A16-CD81EGFP
CONDITION LABEL: human, HepG2-A16-CD81EGFP cells; read-out: INHIBITION
MEASURED QUANTITY: cytotoxicity at 10 µM (%)
Give a bare numeral; the unit % is implied.

COMPOUND | UNITS TEXT | RECORDED RESULT
Clc1cc(NCc2ccncc2)nc2[nH]ccc12 | % | 6.58
Cc1noc(C)c1CN1CCN(CCN(C)C)c2ncccc2C1 | % | 7.83
Cc1nn(C)c(C)c1CNC1CCOc2ccccc21 (configuration not stated) | % | 7.75

# return recorded cytotoxicity at 10 µM for input CCc1nnc2n1CC(CNCc1nc(C)c(C)o1)CC2 (configuration not stated)
-16

# return recorded cytotoxicity at 10 µM for input `CC(C)(C)n1cc(C2=CCN(CCc3ccccn3)CC2)cn1`
-0.505

# return recorded cytotoxicity at 10 µM for input `NC(=O)CN1CCC(c2csc(Nc3cnccn3)n2)CC1`
-2.19

# return recorded cytotoxicity at 10 µM for input `FC(F)Oc1ccc(CNCc2cc(Br)c3c(c2)OCO3)cc1`
35.1

---

ASSAY SUMMARY: Toxicity liver stage against HepG2, at 10uM
Assay type: cell-based
Set-up: test concentration 10 uM, cell line HepG2-A16-CD81EGFP
CONDITION LABEL: human, HepG2-A16-CD81EGFP cells; read-out: INHIBITION
Each entry below carries its recorded cytotoxicity at 10 µM.
Give a bare numeral; the unit % is implied.

COMPOUND | UNITS TEXT | RECORDED RESULT
Cc1ccc(CCC(=O)N2CCCC(c3cc(C(N)=O)[nH]n3)C2)cc1 (stereo not given) | % | -4.33
O=C(Nc1ccc(-c2ccco2)cc1)C1CCCN(Cc2ccon2)C1 (stereo not given) | % | 1.17
CC1(C(=O)NC2CCCC2)CCCN(c2ncccn2)C1 (stereo not given) | % | -27.3
Cc1noc([C@@H]2C[C@H]3CN(C(=O)C4CCN(C)CC4)C[C@H]3O2)n1 | % | -71.2
CCC(=O)N1CCN(C(=O)Nc2ccccc2-c2cccs2)CC1 | % | -3.21
O=C(NC[C@H]1O[C@H](Cc2cc(-c3ccccn3)on2)CC[C@@H]1O)C1CC1 | % | -2.69
Cn1nc(Cn2ccnc2)c2c1CN(Cc1ccoc1)C2 | % | 0.319
Cc1ccc(CCNC(=O)Cn2nc(C)n(Cc3ccccc3)c2=O)o1 | % | 1.33

# return recorded cytotoxicity at 10 µM for input Cc1cc(C(=O)N2CCCC(n3ccnc3)C2)c(C)n1C1CC1 (stereo not given)
1.19

# return recorded cytotoxicity at 10 µM for input `O=C(CCN1CCOC1=O)Nc1cnn(-c2ccccc2Cl)c1`
-3.39

# return recorded cytotoxicity at 10 µM for input `CCCN1CCN(C(=O)c2ccc(Cl)cn2)[C@H]2CS(=O)(=O)C[C@H]21`
-4.15

# return recorded cytotoxicity at 10 µM for input `Cc1cc(=O)[nH]c(=O)n1Cc1ncc(-c2ccccc2C(=O)O)s1`
2.71

# return recorded cytotoxicity at 10 µM for input CCC1CCCCCN1C(=O)c1cc(C#N)c(SC)[nH]c1=O (stereo not given)
12

# return recorded cytotoxicity at 10 µM for input COc1ccc(C(O)CNC(=O)Nc2cc(C)nn2C)cc1 (stereo not given)
2.33

# return recorded cytotoxicity at 10 µM for input `O=C(O)C1(Cc2ccccc2Cl)CCN(c2ncnc3[nH]ccc23)CC1`
11

---

ASSAY SUMMARY: Toxicity liver stage against HepG2, at 10uM
Format: cell-based
Parameters: test concentration 10 uM, cell line HepG2-A16-CD81EGFP
CONDITION LABEL: human, HepG2-A16-CD81EGFP cells; read-out: INHIBITION
Each entry below carries its recorded cytotoxicity at 10 µM.
Give a bare numeral; the unit % is implied.

Recorded results for 3 molecules are shown here.
MOLECULE | cytotoxicity at 10 µM (%)
CC(C)Nc1nc(-c2ccccc2)nc2c1CCN(C(=O)CC#N)CC2 | -104
O=C(NS(=O)(=O)c1ccc2c(c1)CCC2)C1COCCO1 (stereo not drawn) | 10.4
Cc1ccc(S(=O)(=O)N2CCC(c3n[nH]cc3C(=O)N(C)C)CC2)cc1 | -1.73

# return recorded cytotoxicity at 10 µM for input O=C(NCc1c[nH]c(=O)[nH]c1=O)C1CCOc2ccccc2C1 (stereo not drawn)
-3.03

# return recorded cytotoxicity at 10 µM for input `Cn1nccc1C(=O)N1CC[C@]2(C[C@H](OCc3ccccn3)CO2)C1`
-80.6

# return recorded cytotoxicity at 10 µM for input `Cc1ccccc1CNC(=O)Cc1c(C)nc2cc(=O)[nH]n2c1C`
-2.35

# return recorded cytotoxicity at 10 µM for input `CC1(C)CNC(=O)c2nc(-c3n[nH]c(=O)[nH]3)[nH]c2C1`
-4.07

# return recorded cytotoxicity at 10 µM for input O=C(NC1CCc2nccn2C1)c1ccc(NC2CC2)nc1 (stereo not drawn)
9.93

# return recorded cytotoxicity at 10 µM for input CC(NC(=O)N1CCCCCC1)c1ccc(S(N)(=O)=O)cc1 (stereo not drawn)
-6.06

# return recorded cytotoxicity at 10 µM for input `O=C(c1ccco1)N1CCC2(CCC(=O)N2Cc2cccc(F)c2)CC1`
2.84

# return recorded cytotoxicity at 10 µM for input Cc1ccnc(NC(=O)C2CCCO2)c1 (stereo not drawn)
-11.3

# return recorded cytotoxicity at 10 µM for input Cc1nn(C)cc1C1CC(=O)Nc2c1cnn2C (stereo not drawn)
2.8

# return recorded cytotoxicity at 10 µM for input `CCC(=O)Nc1c(C)nn(COc2cccc(F)c2)c1C`
7.77

# return recorded cytotoxicity at 10 µM for input CCN(C)C1COC2(CCN(C(=O)c3ccc4[nH]ccc4c3)CC2)C1 (stereo not drawn)
-5.96

# return recorded cytotoxicity at 10 µM for input `COc1c(CNC2CCN(c3ncccn3)CC2)c(C)nn1C`
-1.66

# return recorded cytotoxicity at 10 µM for input CCc1noc(C(C)SCCS(C)(=O)=O)n1 (stereo not drawn)
5.5

# return recorded cytotoxicity at 10 µM for input `CO[C@H]1C[C@@H](O)C12CCN(CCCOc1ccc(C(N)=O)cc1)CC2`
-5.66

# return recorded cytotoxicity at 10 µM for input `COc1cccc(-c2nc(C)c(C(=O)N[C@@H](CC(C)C)C(=O)O)s2)c1`
4.21
